So I've got a bunch of molecules here, and I need their pIC50 values.
# system: cloned rat mGlu1 receptor (Rattus norvegicus, UniProt P23385)
# Construct: expressed in transfected cells; host or cells: CHO cells
# Sequence (P23385 19-1199): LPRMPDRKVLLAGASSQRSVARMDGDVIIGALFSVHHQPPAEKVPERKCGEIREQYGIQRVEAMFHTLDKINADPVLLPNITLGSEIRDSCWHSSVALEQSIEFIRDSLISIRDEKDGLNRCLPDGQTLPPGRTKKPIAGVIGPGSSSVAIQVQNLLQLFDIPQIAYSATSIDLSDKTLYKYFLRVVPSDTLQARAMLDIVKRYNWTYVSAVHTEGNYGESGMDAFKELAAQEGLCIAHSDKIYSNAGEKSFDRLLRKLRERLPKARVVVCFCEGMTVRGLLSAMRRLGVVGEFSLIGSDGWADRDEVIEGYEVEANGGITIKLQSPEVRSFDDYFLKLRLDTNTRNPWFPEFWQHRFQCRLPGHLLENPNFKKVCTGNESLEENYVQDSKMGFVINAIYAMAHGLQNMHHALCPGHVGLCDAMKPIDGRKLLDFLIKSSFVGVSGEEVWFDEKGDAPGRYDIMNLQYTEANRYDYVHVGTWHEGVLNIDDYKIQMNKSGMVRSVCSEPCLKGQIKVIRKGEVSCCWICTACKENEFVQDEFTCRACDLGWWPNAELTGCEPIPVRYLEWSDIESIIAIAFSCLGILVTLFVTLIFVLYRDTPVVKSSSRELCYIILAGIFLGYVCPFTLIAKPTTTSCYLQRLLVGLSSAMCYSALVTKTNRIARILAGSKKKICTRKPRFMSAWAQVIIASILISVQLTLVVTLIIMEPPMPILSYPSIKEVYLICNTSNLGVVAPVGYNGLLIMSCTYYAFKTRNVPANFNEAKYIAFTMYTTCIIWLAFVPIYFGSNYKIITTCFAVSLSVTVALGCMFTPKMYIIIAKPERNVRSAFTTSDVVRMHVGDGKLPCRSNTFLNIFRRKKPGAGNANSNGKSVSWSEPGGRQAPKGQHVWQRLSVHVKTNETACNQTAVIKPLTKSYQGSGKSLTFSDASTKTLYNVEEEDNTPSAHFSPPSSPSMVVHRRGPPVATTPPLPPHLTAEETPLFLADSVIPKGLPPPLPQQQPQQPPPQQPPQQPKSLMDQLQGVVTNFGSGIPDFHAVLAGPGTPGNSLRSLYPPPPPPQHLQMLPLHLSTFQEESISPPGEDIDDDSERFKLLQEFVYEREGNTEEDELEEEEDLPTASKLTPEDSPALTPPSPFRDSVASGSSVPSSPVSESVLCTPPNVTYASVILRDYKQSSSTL
# test: Signal transduction at the cloned rat mGlu1 receptor in CHO cells (glutamate-induced Ca2+ rise, FLIPR)
# Type: cell-based
# run-conditions: inhibition of glutamate-induced intracellular Ca2+ rise, CHO cells expressing mGlu1 receptor; compounds with pIC50 between 7 and 8
Recall that pIC50 is obtained by taking minus log10 of the concentration measured in molar.

Considering CO[C@H]1CC[C@H](C(=O)c2ccc3nc4c(cc3c2)CCCO4)CC1 , its pIC50 with cloned rat mGlu1 receptor (Rattus norvegicus, UniProt P23385) was recorded as 7.71

Considering CC1CCC(C(=O)c2ccc3nc4c(cc3c2)CCS4)CC1 (stereo not drawn) [Compound 431] , its pIC50 with cloned rat mGlu1 receptor (Rattus norvegicus, UniProt P23385) was recorded as 7.61

Considering O=C(Cc1cccc(F)c1)c1ccc2nc3c(cc2c1)CCCS3 , its pIC50 with cloned rat mGlu1 receptor (Rattus norvegicus, UniProt P23385) was recorded as 7.54

Considering O=C(Cc1ccccc1)c1ccc2nc3c(cc2c1)CCO3 , its pIC50 with cloned rat mGlu1 receptor (Rattus norvegicus, UniProt P23385) was recorded as 7.98

Considering O=C(c1ccc2nc3c(cc2c1)CCS3)C1CC2CCC1C2 (stereo not drawn) , its pIC50 with cloned rat mGlu1 receptor (Rattus norvegicus, UniProt P23385) was recorded as 7.72

Considering CCc1cc2cc(C(=O)C3CC=CCC3)ccc2nc1C (stereo not drawn) , its pIC50 with cloned rat mGlu1 receptor (Rattus norvegicus, UniProt P23385) was recorded as 7.05

Considering O=C(Cc1ccc(F)cc1)c1ccc2nc3c(cc2c1)CCCS3 , its pIC50 with cloned rat mGlu1 receptor (Rattus norvegicus, UniProt P23385) was recorded as 7.86

Considering CCCc1cc2cc(C(=O)[C@H]3CC[C@@H](OC)CC3)ccc2nc1Cl , its pIC50 with cloned rat mGlu1 receptor (Rattus norvegicus, UniProt P23385) was recorded as 7.35

Considering CCc1cc2cc(C(=O)C3CCC(OC)CC3)ccc2nc1NC(=O)CSCc1ccccc1 (stereo not drawn) , its pIC50 with cloned rat mGlu1 receptor (Rattus norvegicus, UniProt P23385) was recorded as 7.17

###

# system: rat mGlu3 receptor (Rattus norvegicus, UniProt P31422)
# test: [35S]GTPγS binding to membranes from CHO-dhfr− cells expressing the rat mGlu3 receptor
# run-conditions: read-out: IC50 for inhibition of glutamate-induced [35S]GTPγS activation
# Description: Confluent cells were washed in ice-cold phosphate-buffered saline and stored at −20° C. until membrane preparation. After thawing, cells were suspended in 50 mM Tris-HCl, pH 7.4 and collected through centrifugation for 10 min at 23,500 g at 4° C. The cells were lysed in 10 mM hypotonic Tris-HCl, pH 7.4. […] Protein concentrations were measured by the Bio-Rad protein assay using bovine serum albumin as standard. […]
pIC50: −log10 of the molar value.
recorded-metric: pIC50

Data point: O=C(Cc1ccccc1)c1ccc2nc3c(cc2c1)CCCO3 [Compound A] ; pIC50 = < 4.52

###

# system: rat mGlu1a receptor (Rattus norvegicus)
# Construct: host or cells: CHO-dhfr- cells
# Sequence (P23385 19-1199): as above
# test: [3H]Compound A binding to rat mGlu1a receptor CHO-dhfr− membranes (saturation, kinetics, inhibition)
# run-conditions: rat mGlu1a receptor CHO-dhfr− membranes
recorded-metric: inhibition of [3H]Compound A binding (in words)

compound	readout-value
N[C@H](C(=O)O)c1ccc(C(=O)O)cc1 [(S)-4CPG, reference compound]	did not inhibit
N[C@@]1(C(=O)O)CC[C@@H](C(=O)O)C1 [1S,3R-ACPD, reference compound]	did not inhibit
N[C@H](C(=O)O)c1cc(O)cc(O)c1 [(S)-3,5-DHPG, reference compound]	did not inhibit

###

recorded-metric: melting point (°C)
// return numeric value only (unit: °C, not printed)

Data point: CCc1cc2cc(C(=O)C3CCC(OC)CC3)ccc2nc1C#C[Si](C)(C)C (stereo not shown) ; melting point = 114

Data point: CCc1cc2cc(C(=O)C3CCC(OC)CC3)ccc2nc1-c1ccsc1 (stereo not shown) ; melting point = 113

Data point: CCc1cc2cc(C(=O)C3Cc4ccccc4C3)ccc2nc1Cl ; melting point = 145

Data point: CCc1cc2cc(C(=O)C3CCC(OC)CC3)ccc2n2nnnc12 (stereo not shown) ; melting point = 160

Data point: CCc1cc2cc(C(=O)CC(C)C)ccc2nc1Cl ; melting point = 82

Data point: CCc1cc2cc(C(=O)C3CCC(OC)CC3)ccc2nc1C(C)=O (stereo not shown) ; melting point = 108

Data point: c1ccc2c(-c3ccc4nc5c(cc4c3)CCS5)noc2c1 ; melting point = 185

###

# system: human mGlu1a receptor (Homo sapiens)
# Sequence (Q13255 19-1194): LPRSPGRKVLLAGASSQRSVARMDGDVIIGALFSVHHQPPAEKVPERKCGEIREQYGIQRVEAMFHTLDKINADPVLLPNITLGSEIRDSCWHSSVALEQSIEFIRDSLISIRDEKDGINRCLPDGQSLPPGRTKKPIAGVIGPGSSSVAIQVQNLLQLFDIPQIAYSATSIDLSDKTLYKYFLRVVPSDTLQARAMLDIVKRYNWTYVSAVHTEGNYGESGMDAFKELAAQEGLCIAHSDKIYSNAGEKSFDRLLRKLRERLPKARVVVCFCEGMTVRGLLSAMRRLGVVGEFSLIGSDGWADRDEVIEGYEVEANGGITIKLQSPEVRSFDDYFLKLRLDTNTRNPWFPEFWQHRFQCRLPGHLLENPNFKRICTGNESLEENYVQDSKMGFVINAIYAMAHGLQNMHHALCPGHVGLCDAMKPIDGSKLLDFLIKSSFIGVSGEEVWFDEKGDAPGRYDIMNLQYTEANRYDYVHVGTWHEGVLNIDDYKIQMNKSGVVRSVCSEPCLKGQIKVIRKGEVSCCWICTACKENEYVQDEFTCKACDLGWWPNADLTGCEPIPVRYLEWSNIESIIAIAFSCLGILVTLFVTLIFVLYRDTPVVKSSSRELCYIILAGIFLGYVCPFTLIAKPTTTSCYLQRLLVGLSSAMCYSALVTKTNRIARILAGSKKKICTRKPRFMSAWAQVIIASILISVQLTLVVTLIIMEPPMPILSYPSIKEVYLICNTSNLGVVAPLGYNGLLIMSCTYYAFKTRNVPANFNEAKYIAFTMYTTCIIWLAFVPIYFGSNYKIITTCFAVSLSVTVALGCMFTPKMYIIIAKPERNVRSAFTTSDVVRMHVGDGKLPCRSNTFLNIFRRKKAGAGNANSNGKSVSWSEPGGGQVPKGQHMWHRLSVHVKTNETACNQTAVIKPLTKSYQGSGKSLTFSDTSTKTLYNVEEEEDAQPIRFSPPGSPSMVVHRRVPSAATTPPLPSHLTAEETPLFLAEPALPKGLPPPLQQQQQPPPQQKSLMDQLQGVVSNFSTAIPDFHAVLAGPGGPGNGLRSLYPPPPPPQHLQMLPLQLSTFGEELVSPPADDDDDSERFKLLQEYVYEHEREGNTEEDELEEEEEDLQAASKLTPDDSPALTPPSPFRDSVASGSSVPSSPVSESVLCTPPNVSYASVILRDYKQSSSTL
# test: Intracellular Ca2+ response in human mGlu1a receptor expressing L929sA cells (FLIPR)
recorded-metric: pIC50
Recall that pIC50 is obtained by taking minus log10 of the concentration measured in molar.

Data point: O=C(Cc1ccccc1)c1ccc2nc3c(cc2c1)CCCO3 [Compound A] ; pIC50 = 7.98

###

# system: cloned rat mGlu1 receptor (Rattus norvegicus)
# Construct: expressed in transfected cells; host or cells: CHO cells
# test: Signal transduction at the cloned rat mGlu1 receptor in CHO cells (glutamate-induced Ca2+ rise, FLIPR)
# Assay type: cell-based
# run-conditions: inhibition of glutamate-induced intracellular Ca2+ rise, CHO cells expressing mGlu1 receptor; compounds with pIC50 between 7 and 8
recorded-metric: IC50 (µM)
// return numeric value only (unit: µM, not printed)

Considering CCCc1cc2cc(C(=O)C3CC4CCC3C4)ccc2nc1C (stereo not drawn) [Compound 318] , its IC50 with cloned rat mGlu1 receptor (Rattus norvegicus) was recorded as 0.0955

Considering O=C(CCc1ccccc1)c1ccc2nc3c(cc2c1)CCCO3 [Compound 434] , its IC50 with cloned rat mGlu1 receptor (Rattus norvegicus) was recorded as 0.0832

Considering O=C(c1ccc2nc3c(cc2c1)CCS3)[C@H]1CC[C@@H](O)CC1 [Compound 421] , its IC50 with cloned rat mGlu1 receptor (Rattus norvegicus) was recorded as 0.0115

Considering CCc1cc2cc(C(=O)C3(C)CCC(OC)CC3)ccc2nc1C (stereo not drawn) [Compound 242] , its IC50 with cloned rat mGlu1 receptor (Rattus norvegicus) was recorded as 0.0174

Considering CCc1cc2cc(C(=O)C3(F)CCC(OC)CC3)ccc2nc1C (stereo not drawn) [Compound 224] , its IC50 with cloned rat mGlu1 receptor (Rattus norvegicus) was recorded as 0.0166

Considering CCc1cc2cc(C(=O)Cc3ccccc3)ccc2nc1F [Compound 527] , its IC50 with cloned rat mGlu1 receptor (Rattus norvegicus) was recorded as 0.0589

Considering CCc1cc2cc(C(=O)C3CCC(OC)CC3)ccc2nc1NC(=O)C1CCC(OC)CC1 (stereo not drawn) [Compound 343] , its IC50 with cloned rat mGlu1 receptor (Rattus norvegicus) was recorded as 0.0468

Considering CCc1cc2cc(C(=O)[C@H]3CC[C@@H](OC)CC3)ccc2nc1NC(=O)c1ccc(=O)[nH]c1 [Compound 191] , its IC50 with cloned rat mGlu1 receptor (Rattus norvegicus) was recorded as 0.0692

Considering COC1CCC(C(=O)c2ccc3nc4c(cc3c2)CCN4C)CC1 (stereo not drawn) [Compound 423] , its IC50 with cloned rat mGlu1 receptor (Rattus norvegicus) was recorded as 0.0129

###

So I've got a bunch of molecules here, and I need their IC50 values.
# system: cloned rat mGlu1 receptor (Rattus norvegicus, UniProt P23385)
# Construct: expressed in transfected cells; host or cells: CHO cells
# test: Signal transduction at the cloned rat mGlu1 receptor in CHO cells (glutamate-induced Ca2+ rise, FLIPR)
# Type: cell-based
# run-conditions: inhibition of glutamate-induced intracellular Ca2+ rise, CHO cells expressing mGlu1 receptor; compounds with pIC50 between 7 and 8
// return numeric value only (unit: nM, not printed)

Data point: O=C(Cc1ccc(F)cc1)c1ccc2nc3c(cc2c1)CCCO3 ; IC50 = 19.5

Data point: O=C(c1ccc2nc3c(cc2c1)CCS3)C1(F)CC2CCC1C2 (stereo not drawn) ; IC50 = 66.1

Data point: CO[C@H]1CC[C@@H](C(=O)c2ccc3nc(C)ccc3c2)CC1 ; IC50 = 16.2

Data point: O=C(c1ccc2nc3c(cc2c1)CCCO3)C1CCc2ccccc2C1 (stereo not drawn) ; IC50 = 55

Data point: O=C(c1ccc2nc3c(cc2c1)CCCO3)C1CC2CCC1O2 (stereo not drawn) [Compound 456] ; IC50 = 35.5

Data point: O=C(CCc1ccccc1)c1ccc2nc3c(cc2c1)CCS3 ; IC50 = 49

Data point: CCc1cc2cc(C(=O)CC3CC4CCC3C4)ccc2nc1C (stereo not drawn) ; IC50 = 60.3

Data point: CCc1c(C)nc2ccc(C(=O)[C@H]3CC[C@@H](OC)CC3)cc2c1CC ; IC50 = 56.2

Data point: O=C(c1ccc2nc3c(cc2c1)CCCO3)C1CC2C=CC1C2 (stereo not drawn) ; IC50 = 22.4
